- Test method notes: […] in mouse serum after 60 mins by HPLC analysis
- Assay type: ADME, cell-free
Result type: fraction unbound at 1 h
Respond with the number and no other words.

Data request: Output fraction unbound at 1 h of [11CH3]C(N)C(=O)CCC(=O)O (racemic)
Data returned: 0.974

Origin of measurements: ChEMBL document CHEMBL2407063
